test: chemical genetic growth profiling, strain panel (AID 1159580);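 note: tested at 20 µM; growth read once vehicle control cultures reached saturation at 30 °C; 1 = growth at the plate median or of vehicle wells; lower values mean less growth of the strain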; conditions: S. cerevisiae deletion strains, growth OD, locus YNL153C, strain GIM3
In all, about 5,500 compounds went through this assay and about 2,000 (36%) were called active. Another 18% or so got no clear call; they are omitted. Cut-off read from the data, not from the text of the source: active = normalized growth mostly below about 0.91 (no sharp cut-off); inconclusive = no clear call, values can overlap the other calls; inactive = mostly above about 0.92. Some of the results follow.
Output constraint: value belongs to active, inactive

>>> labelvalue("CCN1C[C@]2(C)CC[C@H](O)[C@@]34C5C[C@@H]6[C@@H](OC)C[C@@](O)(C5[C@H]6O)[C@@H](CC23)C14 (stereo not given in full)")
"inactive"

Okay, now this compound:
Query: What did the test return for `CCCn1c(=O)c(C#N)cn(-c2ccc(Cl)cc2)c1=O` ?
Response: inactive

* * *

normalized growth by entry:
assay: chemical genetic growth profiling, strain panel (AID 1159580);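 note: tested at 20 µM; growth read once vehicle control cultures reached saturation at 30 °C; 1 = growth at the plate median or of vehicle wells; lower values mean less growth of the strain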; conditions: S. cerevisiae deletion strains, growth OD, locus YHR094C, strain hxt1, active compounds read low
Screen size: about 5,500 compounds; about 2,000 (36%) were called active. Not shown: some 18% with an inconclusive outcome. Some of the results follow.
# output: bare number, no unit

The cases that follow already have their normalized growth on record.
>>> quantitativereadout("O=C1OC(c2ccc(O)cc2)(c2ccc(O)cc2)c2ccccc21")
0.971
>>> quantitativereadout("Nc1nc2ncc(=O)[nH]c2c(=O)[nH]1")
0.965
>>> quantitativereadout("O=S1OCC2C(CO1)C1(Cl)C(Cl)=C(Cl)C2(Cl)C1(Cl)Cl (stereo not given)")
0.971
>>> quantitativereadout("Cc1cccc(C)c1NC1=NCCCS1")
0.989

Consider the additional compound presented here.
Lab note: `O=C(O)CN1C(=O)c2cccc3cccc(c23)C1=O` gave normalized growth of 0.994

* * *

test: chemical genetic growth profiling, strain panel (AID 1159580);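 note: tested at 20 µM; growth read once vehicle control cultures reached saturation at 30 °C; 1 = growth at the plate median or of vehicle wells; lower values mean less growth of the strain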; details: S. cerevisiae deletion strains, growth OD, locus YNL224C, strain SQS1, active compounds read low
The whole screen tested about 5,500 compounds, of which about 2,000 (36%) were called active. Inconclusive results (about 18%) are left out. The list shows a part of the results.
metricName: normalized growth
# output: bare number, no unit

The cases that follow already have their normalized growth on record.
>>> quantitativereadout("CO/N=C(/C(=O)N[C@@H]1C(=O)N2C(C(=O)O)=C(COC(C)=O)CS[C@H]12)c1csc(N)n1")
0.99
>>> quantitativereadout("NC(N)=NCCC[C@H](N)C(=O)O")
0.999
>>> quantitativereadout("N[C@H](CO)C(=O)O")
0.997
>>> quantitativereadout("Clc1ccc(Cn2c(CN3CCCC3)nc3ccccc32)cc1")
1.02
>>> quantitativereadout("COc1ccc2c(c1)c(CC(=O)O)c(C)n2Cc1ccc(F)cc1")
0.985

Lab note: `CC(C)NNC(=O)c1ccncc1` gave normalized growth of 1.02

Lab note: CO/N=C(/C(=O)N[C@@H]1C(=O)N2C(C(=O)O)=C(CSc3nc(=O)c(O)nn3C)CSC12)c1csc(N)n1 (stereo not given in full) gave normalized growth of 1

Lab note: NC(=O)C1=CN(C2OC(COP(=O)(O)OP(=O)(O)OC[C@H]3O[C@@H](n4cnc5c(N)ncnc54)C(OP(=O)(O)O)[C@H]3O)C(O)C2O)C=CC1 (stereo not given in full) gave normalized growth of 1

Lab note: NC(CO)C(=O)NNCc1ccc(O)c(O)c1O (stereo not given) gave normalized growth of 1.01

Lab note: `Cc1c(CC(C)(C)C(=O)O)n(Cc2ccc(Cl)cc2)c2ccc(F)cc12` gave normalized growth of 0.978
